- assay.explanation: Cytotoxicity against human HCT15 cells assessed as growth inhibition after 48 hrs by SRB assay
- Format: functional
- applied.conditions: HCT-15, 48 h
assay.endpoint: GI50 (µM)
Return type: number; implicit unit µM.

Complete the entry with GI50 for COc1ccc(/C(C#N)=C/c2cc3ccccc3[nH]2)cc1OC
0.048

Complete the entry with GI50 for COc1cc(/C(C#N)=C/c2coc3ccccc23)cc(OC)c1OC
0.492

Complete the entry with GI50 for COc1ccc(/C(C#N)=C/c2cc3ccccc3o2)cc1OC
0.469

Complete the entry with GI50 for COc1ccc2[nH]cc(/C=C(\C#N)c3cc(OC)c(OC)c(OC)c3)c2c1
0.068

Complete the entry with GI50 for COc1cc(/C(C#N)=C/c2c[nH]c3ccccc23)cc(OC)c1OC
0.051

Complete the entry with GI50 for COc1cc(OC)cc(/C(C#N)=C/c2nc3ccccc3s2)c1
0.414

Complete the entry with GI50 for COc1ccc(/C(C#N)=C/c2c[nH]c3ccccc23)cc1OC
3.7

Complete the entry with GI50 for COc1cc(OC)cc(/C(C#N)=C/c2c[nH]c3ccccc23)c1
0.053

Complete the entry with GI50 for COc1cc(/C(C#N)=C/c2cc3ccccc3n2Cc2ccc(C#N)cc2)cc(OC)c1OC
0.089

Complete the entry with GI50 for COc1cc(/C(C#N)=C/c2nc3ccccc3s2)cc(OC)c1OC
0.045

* * *

- System: NCI-H522
- assay.explanation: Cytotoxicity against human NCI-H522 cells assessed as growth inhibition after 48 hrs by SRB assay
- Format: functional
- applied.conditions: NCI-H522, 48 h
assay.endpoint: GI50

Complete the entry with GI50 for COc1cc(/C(C#N)=C/c2nc3ccccc3s2)cc(OC)c1OC
0.022 µM

Complete the entry with GI50 for COc1ccc2[nH]cc(/C=C(\C#N)c3cc(OC)c(OC)c(OC)c3)c2c1
0.086 µM

Complete the entry with GI50 for COc1cc(/C(C#N)=C/c2cc3ccccc3o2)cc(OC)c1OC
< 0.01 µM

Complete the entry with GI50 for COc1cc(/C(C#N)=C/c2cc3ccccc3[nH]2)cc(OC)c1OC
< 0.01 µM

Complete the entry with GI50 for COc1cc(OC)cc(/C(C#N)=C/c2c[nH]c3ccccc23)c1
0.027 µM

Complete the entry with GI50 for COc1ccc(/C(C#N)=C/c2cc3ccccc3[nH]2)cc1OC
0.049 µM

Complete the entry with GI50 for COc1cc(/C(C#N)=C/c2coc3ccccc23)cc(OC)c1OC
0.261 µM

Complete the entry with GI50 for COc1ccc(/C(C#N)=C/c2cc3ccccc3o2)cc1OC
0.438 µM

Complete the entry with GI50 for COc1cc(/C(C#N)=C/c2cc3ccccc3n2Cc2ccc(C#N)cc2)cc(OC)c1OC
0.033 µM

Complete the entry with GI50 for COc1ccc(/C(C#N)=C/c2c[nH]c3ccccc23)cc1OC
3.05 µM

Complete the entry with GI50 for COc1cc(/C(C#N)=C/c2c[nH]c3ccccc23)cc(OC)c1OC
0.037 µM

* * *

- assay.explanation: Cytotoxicity against human UO31 cells assessed as growth inhibition after 48 hrs by SRB assay
- Assay type: functional
- applied.conditions: UO-31, 48 h
Could you please report measured log10(GI50) for the items listed next?
In our notation, the value equals log10 of GI50 in µM.

Complete the entry with log10(GI50) for COc1cc(/C(C#N)=C/c2coc3ccccc23)cc(OC)c1OC
0.46

Complete the entry with log10(GI50) for COc1cc(OC)cc(/C(C#N)=C/c2nc3ccccc3s2)c1
-0.17

Complete the entry with log10(GI50) for COc1ccc2[nH]cc(/C=C(\C#N)c3cc(OC)c(OC)c(OC)c3)c2c1
0.10

Complete the entry with log10(GI50) for COc1ccc(/C(C#N)=C/c2c[nH]c3ccccc23)cc1OC
1.16

Complete the entry with log10(GI50) for COc1cc(/C(C#N)=C/c2c[nH]c3ccccc23)cc(OC)c1OC
0.15

Complete the entry with log10(GI50) for COc1cc(/C(C#N)=C/c2cc3ccccc3n2Cc2ccc(C#N)cc2)cc(OC)c1OC
-0.70

* * *

- assay.explanation: Cytotoxicity against human OVCAR8 cells assessed as growth inhibition after 48 hrs by SRB assay
- Assay type: functional
- applied.conditions: OVCAR-8, 48 h
assay.endpoint: GI50 (nM)
Return type: number; implicit unit nM.

Complete the entry with GI50 for COc1cc(/C(C#N)=C/c2coc3ccccc23)cc(OC)c1OC
2900

Complete the entry with GI50 for COc1ccc(/C(C#N)=C/c2cc3ccccc3[nH]2)cc1OC
326

Complete the entry with GI50 for COc1ccc(/C(C#N)=C/c2c[nH]c3ccccc23)cc1OC
7380

Complete the entry with GI50 for COc1cc(OC)cc(/C(C#N)=C/c2c[nH]c3ccccc23)c1
103

Complete the entry with GI50 for COc1ccc2[nH]cc(/C=C(\C#N)c3cc(OC)c(OC)c(OC)c3)c2c1
148

Complete the entry with GI50 for COc1cc(/C(C#N)=C/c2nc3ccccc3s2)cc(OC)c1OC
438

Complete the entry with GI50 for COc1cc(OC)cc(/C(C#N)=C/c2nc3ccccc3s2)c1
3130

Complete the entry with GI50 for COc1cc(/C(C#N)=C/c2cc3ccccc3n2Cc2ccc(C#N)cc2)cc(OC)c1OC
124

Complete the entry with GI50 for COc1cc(/C(C#N)=C/c2c[nH]c3ccccc23)cc(OC)c1OC
121

Complete the entry with GI50 for COc1ccc(/C(C#N)=C/c2cc3ccccc3o2)cc1OC
3980

* * *

- assay.explanation: Cytotoxicity against human UO31 cells assessed as growth inhibition after 48 hrs by SRB assay
- Type: functional
- applied.conditions: UO-31, 48 h
Could you please report measured GI50 for the items listed next?
Return type: number; implicit unit µM.

Complete the entry with GI50 for COc1cc(OC)cc(/C(C#N)=C/c2c[nH]c3ccccc23)c1
0.663

Complete the entry with GI50 for COc1cc(/C(C#N)=C/c2nc3ccccc3s2)cc(OC)c1OC
0.083

Complete the entry with GI50 for COc1ccc(/C(C#N)=C/c2cc3ccccc3o2)cc1OC
3.79

Complete the entry with GI50 for COc1ccc(/C(C#N)=C/c2cc3ccccc3[nH]2)cc1OC
0.071

Complete the entry with GI50 for COc1cc(/C(C#N)=C/c2cc3ccccc3o2)cc(OC)c1OC
2.29

* * *

- Tested on: NCI-H322M
- assay.explanation: Cytotoxicity against human NCI-H322M cells assessed as growth inhibition after 48 hrs by SRB assay
- Assay type: functional
Could you please report measured GI50 for the items listed next?
Return type: number; implicit unit nM.

Complete the entry with GI50 for COc1cc(/C(C#N)=C/c2nc3ccccc3s2)cc(OC)c1OC
2290

Complete the entry with GI50 for COc1ccc2[nH]cc(/C=C(\C#N)c3cc(OC)c(OC)c(OC)c3)c2c1
44

Complete the entry with GI50 for COc1ccc(/C(C#N)=C/c2cc3ccccc3[nH]2)cc1OC
735

Complete the entry with GI50 for COc1ccc(/C(C#N)=C/c2cc3ccccc3o2)cc1OC
6180

Complete the entry with GI50 for COc1ccc(/C(C#N)=C/c2c[nH]c3ccccc23)cc1OC
24300

Complete the entry with GI50 for COc1cc(/C(C#N)=C/c2coc3ccccc23)cc(OC)c1OC
19100

Complete the entry with GI50 for COc1cc(/C(C#N)=C/c2cc3ccccc3n2Cc2ccc(C#N)cc2)cc(OC)c1OC
465

* * *

- assay.explanation: Cytotoxicity against human OVCAR4 cells assessed as growth inhibition after 48 hrs by SRB assay
- Format: functional
- applied.conditions: OVCAR-4, 48 h
Could you please report measured GI50 for the items listed next?
Return type: number; implicit unit µM.

Complete the entry with GI50 for COc1ccc(/C(C#N)=C/c2cc3ccccc3[nH]2)cc1OC
0.735

Complete the entry with GI50 for COc1ccc2[nH]cc(/C=C(\C#N)c3cc(OC)c(OC)c(OC)c3)c2c1
1.35

Complete the entry with GI50 for COc1ccc(/C(C#N)=C/c2c[nH]c3ccccc23)cc1OC
22.1

Complete the entry with GI50 for COc1ccc(/C(C#N)=C/c2cc3ccccc3o2)cc1OC
7.19

Complete the entry with GI50 for COc1cc(OC)cc(/C(C#N)=C/c2c[nH]c3ccccc23)c1
3.52

Complete the entry with GI50 for COc1cc(/C(C#N)=C/c2nc3ccccc3s2)cc(OC)c1OC
3.86

* * *

- System: CCRF-CEM
- assay.explanation: Cytotoxicity against human CCRF-CEM cells assessed as growth inhibition after 48 hrs by SRB assay
- Assay type: functional
Could you please report measured GI50 for the items listed next?
Return type: number; implicit unit nM.

Complete the entry with GI50 for COc1cc(/C(C#N)=C/c2cc3ccccc3o2)cc(OC)c1OC
24

Complete the entry with GI50 for COc1ccc(/C(C#N)=C/c2cc3ccccc3o2)cc1OC
777

Complete the entry with GI50 for COc1ccc2[nH]cc(/C=C(\C#N)c3cc(OC)c(OC)c(OC)c3)c2c1
64

Complete the entry with GI50 for COc1cc(/C(C#N)=C/c2coc3ccccc23)cc(OC)c1OC
1410

Complete the entry with GI50 for COc1cc(/C(C#N)=C/c2nc3ccccc3s2)cc(OC)c1OC
55

Complete the entry with GI50 for COc1cc(OC)cc(/C(C#N)=C/c2c[nH]c3ccccc23)c1
42

Complete the entry with GI50 for COc1cc(/C(C#N)=C/c2c[nH]c3ccccc23)cc(OC)c1OC
58

Complete the entry with GI50 for COc1ccc(/C(C#N)=C/c2cc3ccccc3[nH]2)cc1OC
62

Complete the entry with GI50 for COc1ccc(/C(C#N)=C/c2c[nH]c3ccccc23)cc1OC
2740

Complete the entry with GI50 for COc1cc(/C(C#N)=C/c2cc3ccccc3[nH]2)cc(OC)c1OC
17

Complete the entry with GI50 for COc1cc(/C(C#N)=C/c2cc3ccccc3n2Cc2ccc(C#N)cc2)cc(OC)c1OC
136

Origin of measurements: ChEMBL document CHEMBL3407388
